assay: In vitro cytotoxicity by MTT assay in HaCaT cells; type: cell-based; conditions: human, HaCaT keratinocyte cells, test concentration 5 mg/mL
PARAMETER: cytotoxicity at 24 h, 5 mg/mL
Note: state the figure and append the unit.

**Query** Would you mind telling me what cytotoxicity at 24 h, 5 mg/mL value was observed for Cc1ncc(CO)c(CN)c1O ?
**Result** 76%
